Just for reference, PubChem BioAssay AID652002 is where these values come from.

- assayed.target: Tumor necrosis factor receptor superfamily member 10B (Homo sapiens)
- assay.text: compound enhancement of TRAIL-induced cell killing – NB7 cells plus caspase-8, luminescence, panel, dose response (AID 652002)
- recorded.conditions: NB7 neuroblastoma +caspase-8, TRAIL sensitization, luminescence viability; NB7+Caspase-8; with TRAIL, mean of runs
Calls of active or inactive are those of the source. The rule behind the calls is not given here.
parameter: EC50

| chemical.string | parameter | value.observed |
| --- | --- | --- |
| CCOc1ccc(-c2nnc(-c3ccccc3)o2)cc1 | EC50 | inactive |
| CN1C[C@@H]2[C@@H]3C(=O)N(Cc4ccccc4)C(=O)[C@@H]3[C@](Cc3ccccc3)(C1=O)N2C(=O)c1ccc(C(C)(C)C)cc1 | EC50 | > 12.5 µM (inactive) |
| COc1cccc(NC(=O)c2ccc3c(c2)OCO3)c1 | EC50 | inactive |
